Reference source: a melting point compilation (Tetko et al.)

Below, each of the compounds is paired with its reported melting point value.

>  <compound>
COc1ccnc(-c2cc(OC)ccn2)c1

>  <experimental result>
169 to 174 °C

$$$$
>  <compound>
CC(=O)NC(Cc1c[nH]c2ccccc12)C(=O)O (racemic)

>  <experimental result>
204 to 206 °C

$$$$
>  <compound>
CCCCc1ccc(/C=N/c2ccc(C(C)=O)cc2)cc1

>  <experimental result>
83 to 93 °C

$$$$
>  <compound>
Cc1nc(-c2ccc(CBr)cc2)cs1

>  <experimental result>
73 to 76 °C

$$$$
>  <compound>
Cc1oc(-c2ccccc2)cc1C(=O)Cl

>  <experimental result>
85 to 88 °C

$$$$

State the recorded melting point for this entry: Brc1ccc2[nH]cnc2c1
130 to 131 °C

Now consider O=S(=O)(Cl)Cc1cccc(Br)c1 and answer again.
88 to 89 °C

Same question for CC(C)CCC[C@@H](C)[C@H]1CC[C@H]2[C@@H]3CC=C4C[C@@H](OCOc5ccc(Cl)cc5)CC[C@]4(C)[C@H]3CC[C@]12C please.
144 to 145 °C

Then CC(C)(C)OC(=O)N1CCN(C(=O)OCC2c3ccccc3-c3ccccc32)CC1C(=O)O (stereo not drawn) ?
156 to 158 °C

Then this compound: O=C1CCC2(CC1)OCCO2
74 to 76 °C

Ok, now O=C(O)c1cc(-c2ccccc2)c(C(F)(F)F)s1
130 to 132 °C

Same question, C/C=C/C1Nn2c(nnc2-c2cccnc2)S1 (stereo not drawn) this time
120 to 122 °C

One more compound: O=[N+]([O-])c1ccc(-c2nnc3n2NC(c2ccccc2O)S3)cc1 (stereo not drawn)
195 °C

Same read-out for Nc1c(Br)cc(F)c(F)c1F ?
58 to 60 °C

----------
Quick reference: melting point of the listed items.

>  <compound>
COc1ccc2nc(-c3ccccc3)cc(Cl)c2c1

>  <melting point>
121 to 124 °C

$$$$
>  <compound>
Cc1c(C=NO)c(=O)n(-c2ccccc2)n1C

>  <melting point>
216 to 219 °C

$$$$

Attention now shifts to the item below.
Which melting point reading was recorded for the compound N#Cc1c(C(F)(F)F)cc(-c2ccccc2)[nH]c1=O ?
301 to 303 °C

----------
Here, each record is paired with measured melting point data.

>  <smi>
O=S(=O)(O)c1cccc2cccc(Cl)c12

>  <melting point>
145 to 147 °C

$$$$
>  <smi>
Ic1ccc(-c2ccno2)cc1

>  <melting point>
139 to 140 °C

$$$$
>  <smi>
Cc1cc([N+](=O)[O-])cnc1Cl

>  <melting point>
78 to 80 °C

$$$$
>  <smi>
NC(=O)c1c(N)cccc1F

>  <melting point>
115 to 118 °C

$$$$

# melting point lookup, item CC(C)S(=O)(=O)c1csc(C(=O)Cl)c1Cl
170 to 171 °C

----------
melting point values by entry

Example entries begin here.
>  <molecule>
CC12CCC(C=C/C1=N\O)C2(C)C (stereo not given)

>  <melting point>
145 to 146 °C

$$$$
>  <molecule>
O=Cc1ccc(-c2ccccn2)s1

>  <melting point>
122 to 123 °C

$$$$
>  <molecule>
Nc1ccc2c(c1)CCCC2=O

>  <melting point>
130 to 131 °C

$$$$
>  <molecule>
c1ccc(-c2cc(-c3ccccc3)cc(-c3ccccc3)c2)cc1

>  <melting point>
172 to 175 °C

$$$$

Let us examine a further case.
Look up melting point: CNc1nnc(C(F)(F)F)s1
115 to 117 °C
